run-description: Mouse PK test: plasma concentration after intravenous or oral administration
Assay type: in vivo, mice (C57BL/6J)
assay-context: C57BL/6J, plasma, male mice, oral administration, 50 mg/kg, read-out: Tmax
Description: We evaluated the plasma concentration changes after intravenous or oral administration of four types of peptides that satisfy these conditions to mice. To male mice (C57BL/6J, 10 weeks old, purchased from Charles River Laboratories Japan, Inc.: 3 mice per group), the compound was administered intravenously at a dose of 1 mg/kg or orally at a dose of 50 mg/kg, and blood was collected from the jugular vein over time up to 24 hours after administration. […]
Non-standard residues stand in square brackets, D forms with d. Residues, ends and D or L forms follow the SMILES beside them. *: point of attachment. NMeF = CN[C@@H](Cc1ccccc1)C(=O)O; NMeT = CN[C@H](C(=O)O)[C@@H](C)O; NMeL = CN[C@@H](CC(C)C)C(=O)O; NMeV = CN[C@H](C(=O)O)C(C)C; d(β3hA) = C[C@@H](N)CC(=O)O; NMeAbu = CC[C@H](NC)C(=O)O; Abu = CC[C@H](N)C(=O)O; tBu = CC(C)(C)*
Measured Tmax values are reported for all entries that follow.
Please respond with the number in h and leave the unit unwritten.

CC[C@H](C)[C@@H]1NC(=O)[C@H](CC(C)C)N(C)C(=O)C[C@@H](C)NC(=O)[C@H](C(C)C)N(C)C(=O)[C@H](COC(C)(C)C)NC(=O)[C@H](CC)N(C)C(=O)[C@H](Cc2ccccc2)N(C)C(=O)[C@H](CC(C)C)NC(=O)[C@@H]2CCCN2C(=O)[C@H]([C@@H](C)O)N(C)C(=O)[C@H](CC(C)C)N(C)C(=O)[C@H](CC)N(C)C(=O)[C@H](C(C)C)NC(=O)[C@H](CC(C)C)N(C)C1=O [pd057] (cyclo(I[NMeL]V[NMeAbu][NMeL][NMeT]PL[NMeF][NMeAbu]S(tBu)[NMeV][d(β3hA)][NMeL]))
2.7

# ---- query compound ----
Tmax reported for this compound CC[C@@H]1NC(=O)[C@H](CC(C)C)N(C)C(=O)[C@H]([C@@H](C)CC)NC(=O)[C@H](CC(C)C)N(C)C(=O)C[C@@H](C)NC(=O)[C@H](C(C)C)N(C)C(=O)[C@H](CC(C)C)NC(=O)[C@H](CC)N(C)C(=O)[C@H](Cc2ccccc2)N(C)C(=O)[C@@H]2CCCN2C(=O)[C@H](CC(C)C)NC(=O)[C@H]([C@@H](C)O)N(C)C(=O)[C@H](CC(C)C)N(C)C1=O [pd135] (cyclo([Abu][NMeL][NMeT]LP[NMeF][NMeAbu]L[NMeV][d(β3hA)][NMeL]I[NMeL])) : 1.7

Measured values drawn from patent EP4768499A1 for this set.
